# measurementProtocol: Cellular Toxicity (caspase-3) Hek293 (AID 664);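 note: cells exposed to compound for 16 h at 37 °C before readout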
# testConditions: HEK293 caspase-3 activation, DMSO = 0%, 100 µM tamoxifen = 100%; at 92.2 µM (top of the series)
Records with an inconclusive call do not appear.
In this section we review reported caspase-3 activation values for a set of compounds.
valueType: caspase-3 activation (%)

>>> reportedvalue("CCNc1cc(O)ccc1C")
0.389
>>> reportedvalue("C=CCn1c(=O)n(CC=C)c(=O)n(CC=C)c1=O")
-1.6
>>> reportedvalue("CC(C)CCOC(=O)/C=C/c1ccccc1")
1.37
>>> reportedvalue("Cc1cccc2ccccc12")
0.828
>>> reportedvalue("Cc1ccc2oc(=O)ccc2c1")
-2.33
>>> reportedvalue("COC(=O)CC#N")
0.82
>>> reportedvalue("NC(=O)c1cccc([N+](=O)[O-])c1")
2
>>> reportedvalue("CC(C)c1ccccc1")
-0.725
>>> reportedvalue("CCCCC(CC)C(=O)O (configuration not stated)")
2.49
>>> reportedvalue("CCN(C(=O)N(CC)c1ccccc1)c1ccccc1")
0.606
>>> reportedvalue("CNc1ccc([N+](=O)[O-])cc1")
-2.51
>>> reportedvalue("CCC(C)(C)OC")
-1.93
>>> reportedvalue("CC(=O)Nc1ccccc1C")
3.57
>>> reportedvalue("CCC(C)(C)C(=O)O")
1.52
>>> reportedvalue("O=C(O)c1cccc([N+](=O)[O-])c1")
2.38
>>> reportedvalue("C1CCC2OC2C1 (configuration not stated)")
1.05
>>> reportedvalue("Cc1ccc2ncccc2c1")
0.475

###

# assayTarget: Peroxisome proliferator-activated receptor alpha (Homo sapiens) (UniProt Q07869)
# Sequence (Q07869 whole entry, looked up): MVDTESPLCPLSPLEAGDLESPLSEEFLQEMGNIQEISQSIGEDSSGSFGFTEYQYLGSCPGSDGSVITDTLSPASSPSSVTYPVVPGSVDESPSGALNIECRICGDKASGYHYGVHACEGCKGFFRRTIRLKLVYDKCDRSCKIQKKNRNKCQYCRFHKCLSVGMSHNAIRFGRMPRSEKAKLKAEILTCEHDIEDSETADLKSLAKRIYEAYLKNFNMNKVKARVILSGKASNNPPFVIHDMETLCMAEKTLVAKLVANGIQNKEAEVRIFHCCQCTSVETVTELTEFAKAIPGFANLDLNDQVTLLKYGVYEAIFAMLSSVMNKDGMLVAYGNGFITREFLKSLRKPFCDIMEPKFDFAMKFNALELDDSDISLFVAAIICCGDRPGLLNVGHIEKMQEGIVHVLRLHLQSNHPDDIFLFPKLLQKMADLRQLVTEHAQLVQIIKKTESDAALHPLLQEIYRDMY
# measurementProtocol: qHTS assay for small molecule agonists of the peroxisome proliferator-activated receptor alpha (PPARalpha) signaling pathway (AID 651778); note: % of control where 0% means no effect
# testConditions: PathHunter PPARalpha complementation, chemiluminescence, 6 h; stronger effect = higher value
valueType: max response (%)

>>> reportedvalue("Nc1cc(Cl)c([N+](=O)[O-])cc1O")
-6.88
>>> reportedvalue("Cc1ccc(C)c(O)c1")
-1.27
>>> reportedvalue("CCNc1ccccc1")
-1.14
>>> reportedvalue("C=CCCC")
-5.85
>>> reportedvalue("CC(=O)OC(C)C")
-3.3
>>> reportedvalue("ICCc1ccccc1")
-1.29
>>> reportedvalue("Cc1ccc(C)c(N)c1")
7.66
>>> reportedvalue("Cc1ccccc1C#N")
-1.24
>>> reportedvalue("CC1=C(/C=C/C(C)=C/C=C/C(C)=C\\C=O)C(C)(C)CCC1")
1.33
>>> reportedvalue("O=c1[nH][nH]c(=O)c2cc([N+](=O)[O-])ccc12")
-4.9
>>> reportedvalue("NC=O")
-1.01
>>> reportedvalue("BrC/C=C/CBr")
3.19
>>> reportedvalue("c1ccc2[nH]cnc2c1")
-1.28
>>> reportedvalue("CC(=O)CCc1ccccc1")
0.48
>>> reportedvalue("CSCCC=O")
13.7
>>> reportedvalue("c1ccc2c(c1)ccc1ncccc12")
-1.09
>>> reportedvalue("COc1cccc2sc(N)nc12")
-2.03
>>> reportedvalue("CCC(C)(C)C")
-1.79
>>> reportedvalue("NC(=O)c1cccc([N+](=O)[O-])c1")
2.42
>>> reportedvalue("CC(C)C(C)C")
-4.01
>>> reportedvalue("CCCCOCCOCCSC#N")
0.043
>>> reportedvalue("C=CC(=O)OCCCC")
0.0985
>>> reportedvalue("CCN(CC)c1cccc(O)c1")
-5.23
>>> reportedvalue("O=CNc1ccccc1")
-2.49
>>> reportedvalue("CC/C=C1/OC(=O)c2ccccc21")
-2.48
>>> reportedvalue("CC=O")
-2.4
>>> reportedvalue("Nc1ccccc1[N+](=O)[O-]")
-3.89
>>> reportedvalue("CC=C(Cl)Cl")
-5.05
>>> reportedvalue("Cc1cccc2sc(N)nc12")
-1.18
>>> reportedvalue("Cc1cc([N+](=O)[O-])ccc1N")
-7.44
>>> reportedvalue("ClCCl")
-6.14
>>> reportedvalue("Cc1cccc(C)c1O")
-7.29
>>> reportedvalue("Cc1cc(C2(c3cc(C)c(O)cc3C)OS(=O)(=O)c3ccccc32)c(C)cc1O")
-10.4
>>> reportedvalue("Cc1c(C(=O)O)cccc1[N+](=O)[O-]")
-0.685
>>> reportedvalue("O=C(O)c1ccccc1C(=O)O")
0.653
>>> reportedvalue("OC/C(Br)=C(\\Br)CO")
-6.37
>>> reportedvalue("CC(C)Cc1nccs1")
-1.04
>>> reportedvalue("O=[N+]([O-])c1cccc(Cl)c1")
-3.34
>>> reportedvalue("O=Cc1ccc(Cl)cc1")
-4.56
>>> reportedvalue("Nc1cccc(S(=O)(=O)O)c1")
-1.84
>>> reportedvalue("C1CCC2OC2C1 (configuration not stated)")
-2.34
>>> reportedvalue("COC(=O)CCC(=O)OC")
7.56
>>> reportedvalue("CNc1ccccc1")
-7.07
>>> reportedvalue("Cc1ccc(C(=O)O)cc1")
2.54
>>> reportedvalue("O=C(O)c1ccc(Cl)cc1Cl")
-5.53
>>> reportedvalue("O=[N+]([O-])c1ccccc1CCO")
-1.29
>>> reportedvalue("OC(CCl)CCl")
-0.528
>>> reportedvalue("CCCCC(C=O)CC (configuration not stated)")
-5.44
>>> reportedvalue("CC(=O)c1ccccn1")
0.325
>>> reportedvalue("NC(=O)CCCCC(N)=O")
-1.94
>>> reportedvalue("CN(C)c1cccc(O)c1")
-3.12
>>> reportedvalue("CC(=O)c1nccs1")
-1.62
>>> reportedvalue("CCCCC(=O)N(C)C")
-3.71
>>> reportedvalue("CCCCC(CC)CO (configuration not stated)")
-2.86
>>> reportedvalue("FC(F)(F)c1ccccc1Cl")
-1.82
>>> reportedvalue("O=[N+]([O-])c1c(Cl)cc(Cl)cc1Cl")
0.895
>>> reportedvalue("CC(N)CN (configuration not stated)")
-3.51
>>> reportedvalue("CC(=O)c1cc(C)oc1C")
-8.47
>>> reportedvalue("O=C(O)c1ccccc1Cl")
-0.83
>>> reportedvalue("Cc1ccccc1C(N)=O")
-0.838
>>> reportedvalue("CC(=O)Nc1ccc(C)cc1")
-1.18
>>> reportedvalue("Cc1ccc(S(=O)(=O)NC2CCCCC2)cc1")
-1.4
>>> reportedvalue("CCCCCCC=O")
-2.2
>>> reportedvalue("CC(C)Nc1ccccc1")
-3.92
>>> reportedvalue("CC1(N)CCC(C(C)(C)N)CC1 (configuration not stated)")
0.74
>>> reportedvalue("CCCCCCCCC/C=C/CC1CC(=O)OC1=O (configuration not stated)")
0.153
>>> reportedvalue("NC(=O)NC(N)=O")
-2.74
>>> reportedvalue("Oc1c(Cl)ccc(Cl)c1Cl")
6.63
>>> reportedvalue("C=C(C)C(=O)OCCCCCC")
-8.01
>>> reportedvalue("CC(O)CC(C)O (configuration not stated)")
-0.949
>>> reportedvalue("Cc1cc(C)c(N)cc1C")
-4.75
>>> reportedvalue("CCCOCC(C)OCC(C)O (configuration not stated)")
-1.53

###

# measurementProtocol: Cell Viability - LYMP2-016 (AID 984);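 note: cells exposed to compound for 24 hours at 37 °C; nearly all actives have a fitted effect of over 55% in size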
# testConditions: LYMP2-016 lymphoblastoid cell viability, qHTS; series mostly up to 92.2 µM
Results filed as inconclusive are left out. Activity calls are given as the source filed them. Calls follow the shape of the dose curve; as a rule, active = well fitted cell-killing curve with a large enough effect; inconclusive = small, poorly fitted or top-dose-only effect; inactive = flat fitted curve, though single readings scatter.
Outcome codes: active, inactive

>>> assignedclass("NCCCCCCN")
"inactive"
>>> assignedclass("ClCCl")
"inactive"
>>> assignedclass("C=C(C)C(N)=O")
"inactive"
>>> assignedclass("CCOCC(=O)O")
"inactive"
>>> assignedclass("S=C([S-])NCCNC(=S)[S-].[Zn+2]")
"inactive"
>>> assignedclass("CC(C)(O)C(=O)O")
"inactive"
>>> assignedclass("CCCC(Cl)CCCC(Cl)CCC(Cl)CCC(Cl)CCC(Cl)CCCC(Cl)CCC (centres undefined)")
"inactive"
>>> assignedclass("O=[N+]([O-])c1cccc(Cl)c1")
"inactive"
>>> assignedclass("CCCOCC(C)O (centres undefined)")
"inactive"
>>> assignedclass("Cc1ccc(C)cc1")
"inactive"
>>> assignedclass("CC(C)C=O")
"inactive"
>>> assignedclass("CC(=O)c1cc(C)oc1C")
"inactive"
>>> assignedclass("CC#N")
"inactive"
>>> assignedclass("Cc1cccc(C(=O)O)c1")
"inactive"
>>> assignedclass("CCNc1ccccc1")
"inactive"
>>> assignedclass("C=Cc1ccccc1C=C")
"inactive"
>>> assignedclass("Cc1ccc(CO)cc1")
"inactive"
>>> assignedclass("C=C(C)C(=O)OCC(C)O (centres undefined)")
"inactive"
>>> assignedclass("c1ccc(Nc2ccccc2)cc1")
"inactive"
>>> assignedclass("COc1cccc2sc(N)nc12")
"inactive"
>>> assignedclass("Cc1ccccc1C(N)=O")
"inactive"
>>> assignedclass("CCNS(=O)(=O)c1ccc(C)cc1")
"inactive"
>>> assignedclass("CC(C)(O)CCC(C)(C)O")
"inactive"
>>> assignedclass("CCCCOCCOCCSC#N")
"inactive"
>>> assignedclass("OC1CCCC1")
"inactive"
>>> assignedclass("C1CCOC1")
"inactive"
>>> assignedclass("CNc1ccc([N+](=O)[O-])cc1")
"inactive"
>>> assignedclass("Nc1cc(Cl)c(N)c(Cl)c1")
"inactive"
>>> assignedclass("Nc1c(Cl)cc(Cl)cc1Cl")
"inactive"
>>> assignedclass("C=Cc1ccc(C=C)cc1")
"inactive"
>>> assignedclass("c1ccsc1")
"inactive"
>>> assignedclass("Cc1ccccc1C#N")
"inactive"
>>> assignedclass("COC(=O)c1ccccc1")
"inactive"
>>> assignedclass("CCN(C(=O)N(CC)c1ccccc1)c1ccccc1")
"inactive"
>>> assignedclass("CC(=O)OCc1ccco1")
"inactive"
>>> assignedclass("CC1CCC2CC1C2(C)C (centres undefined)")
"inactive"
>>> assignedclass("CC(=O)CC(C)C")
"inactive"
>>> assignedclass("COc1ccc(N=[N+]([O-])c2ccc(OC)cc2)cc1")
"inactive"
>>> assignedclass("Cc1cc(C)cc([N+](=O)[O-])c1")
"inactive"
>>> assignedclass("O=C1CCC(=O)O1")
"inactive"
>>> assignedclass("Cc1ccc(N(C)C)cc1")
"inactive"
>>> assignedclass("CC(C)c1ccccc1")
"inactive"
>>> assignedclass("O=C(O)c1ccc(Cl)cc1Cl")
"inactive"
>>> assignedclass("CC(=O)c1nccs1")
"inactive"
>>> assignedclass("CCC(C)O (centres undefined)")
"inactive"
>>> assignedclass("Cc1cccc2ccccc12")
"inactive"
>>> assignedclass("C=C(C)C(=O)OC")
"inactive"
>>> assignedclass("Cc1cccc2sc(N)nc12")
"inactive"
>>> assignedclass("Oc1c(Cl)ccc(Cl)c1Cl")
"inactive"
>>> assignedclass("NC(=O)c1ccccc1[N+](=O)[O-]")
"inactive"
>>> assignedclass("Cc1ccc(C)o1")
"inactive"
>>> assignedclass("CCN(Cc1ccccc1)c1ccccc1")
"inactive"
>>> assignedclass("OC/C(Br)=C(\\Br)CO")
"inactive"
>>> assignedclass("CSc1ccc(C=O)cc1")
"inactive"
>>> assignedclass("CC(O)COC(C)(C)C (centres undefined)")
"inactive"
>>> assignedclass("Cc1cscn1")
"inactive"
>>> assignedclass("O=C1OC(=O)c2c(Cl)c(Cl)c(Cl)c(Cl)c21")
"inactive"
>>> assignedclass("O=C1OC(=O)c2c(Br)c(Br)c(Br)c(Br)c21")
"inactive"
>>> assignedclass("Cc1cc(C)cc(O)c1")
"inactive"
>>> assignedclass("CCOc1ccccc1N")
"inactive"
>>> assignedclass("CCCCN(CCO)CCCC")
"inactive"
>>> assignedclass("C[C@@H]1CC2(OC[C@]3(C)O[C@H]23)O[C@H]2C[C@@]3(C)[C@@H]4CC[C@H]5C(C)(C)C(O[C@@H]6OC[C@@H](O)[C@H](O)[C@H]6O)CC[C@@]56C[C@@]46CC[C@]3(C)[C@@H]12 (some centres undefined)")
"inactive"
>>> assignedclass("Nc1nc2ccccc2[nH]1")
"inactive"
>>> assignedclass("COc1cccc(N)c1")
"inactive"
>>> assignedclass("O=[N+]([O-])c1cc(C(F)(F)F)ccc1Cl")
"inactive"
>>> assignedclass("Cc1ccc(C)c(O)c1")
"inactive"
>>> assignedclass("O=[N+]([O-])c1ccc(Cl)cc1Cl")
"inactive"
>>> assignedclass("CCCCC/C=C/C=C/C=O")
"active"
>>> assignedclass("Nc1ccc(F)cc1F")
"inactive"
